- Test system: tumoroids from colon cancer patients
- ASSAY PROCEDURE: Tumoroid growth inhibition measured as projected area by imaging (CyQUANT, IndiNet)
- Format: cell-based, human
- TEST CONDITIONS: 50% inhibition of tumoroid growth (projected area), day 7; tumoroids from four control patients
EXPERIMENTAL READOUT: IC50 (nM)
One number for each entry, in nM.

Provide measured IC50 value, entry: `CCc1c2c(nc3ccc(O)cc13)-c1cc3c(c(=O)n1C2)COC(=O)[C@]3(O)CC`
1.64

----------
- System: tumoroids from colon cancer patients
- ASSAY PROCEDURE: Tumoroid ATP content (CellTiter-Glo 3D cell viability assay)
- Type: cell-based, human
- TEST CONDITIONS: 50% inhibition of total ATP content, day 7; tumoroids from four control patients; Folfox = equal concentrations of 5-Fluorouracil and Oxaliplatin
EXPERIMENTAL READOUT: IC50 (µM)
Give bare numbers, in µM.

Provide measured IC50 value, entry: `O=C1[O][Pt]2([NH][C@@H]3CCCC[C@H]3[NH]2)[O]C1=O`
72.7
